Numbers sourced from patent US20240400986A1.

# Tested on: cardiomyocytic cell line derived from human ventricular heart tissue
# testDescription: Cell viability in cardiomyocyte compound screen (CellTiter-Glo)
# Assay type: cell-based
# testParameters: Table 23 (down-regulators); dose 10 nM; cardiomyocytes
Counter-ions that a name gives are not always drawn.
measurementKind: Viability (%)
Answers are plain numbers, in %.

[[record]]
molecule = "CC(N)=NCc1cccc(CN)c1.Cl.Cl [1400W dihydrochloride]"
measurementkind = "Viability"
unitofmeasure = "%"
measurednumber = 100.0


Now, please, on to the next molecule.
Report Viability for CN(C)CCCSC(=N)N [Dimaprit dihydrochloride] please. 100.0

---

# Test system: cardiomyocytic cell line derived from human ventricular heart tissue
# testDescription: Cell viability in cardiomyocyte compound screen (CellTiter-Glo)
# Assay type: cell-based
# testParameters: human, 24 h, 10000 nM
measurementKind: Viability

[[record]]
compound = "O=S(=O)(c1ccccc1)N(CC(F)(F)F)c1ccc(C(O)(C(F)(F)F)C(F)(F)F)cc1"
result = ">75%"

[[record]]
compound = "Cc1cc(C)c(S(=O)(=O)N(Cc2ccc(-c3cccc(S(C)(=O)=O)c3)cc2)Cc2ccc(C(F)(F)F)o2)c(C)c1"
result = "100%"

[[record]]
compound = "COc1cc(C(C)=O)ccc1O"
result = ">75%"


Hey, quick one: what's Viability for each of these?
1. O=c1ncn2nc(Sc3ccc(F)cc3F)ccc2c1-c1c(Cl)cccc1Cl
2. CCN(CC)CCNC(=O)c1c(C)[nH]c(/C=C2\C(=O)Nc3ccc(F)cc32)c1C
3. COc1cc(O)c2c(c1)oc(=O)c1c3cc(O)c(O)cc3oc21 [Wedelolactone, reference compound]
4. C[C@@H]1COCCN1c1cc(=O)n2c(n1)N(Cc1cncc(Cl)c1)[C@H](C(F)(F)F)CC2
5. Cn1c(=O)n(-c2ccc(C(C)(C)C#N)cc2)c2c3cc(-c4cnc5ccccc5c4)ccc3ncc21
6. NC(=O)N1c2ccccc2C=Cc2ccccc21 [Carbamazepine]

1: 100.0%; 2: 50-75%; 3: >75%; 4: >75%; 5: >75%; 6: >75%
